Each recorded value in this set is attributed to paper PMC11206245.

- method_description: Study B: 17-AAG pharmacokinetics in subcutaneous interstitial fluid (tissue cages, HPLC)
- Type: in vivo
- experimental_conditions: both sexes, dog, subcutaneous interstitial fluid, iv, 150 mg/m2, Study B, dogs, subcutaneous interstitial fluid, 2nd of three IV administrations of 150 mg/m^2 at 48 h intervals, mean ± SD; read-out: t ½ (converted)
endpoint_name: half-life (min)
Record the value in min, omitting the unit from your answer.

Q. Report half-life for C=CCNC1=C2C[C@@H](C)C[C@H](OC)[C@H](O)[C@@H](C)/C=C(\C)[C@H](OC(N)=O)[C@@H](OC)/C=C\C=C(/C)C(=O)NC(=CC1=O)C2=O [17-AAG, 17-(allylamino)-17-demethoxygeldanamycin] please.
A. 1680

* * *

- method_description: Study A dose-escalation protocol: 17-AAG pharmacokinetics in plasma (HPLC)
- Type: in vivo
- experimental_conditions: female, dog, 50 mg/m2; Study A, dogs, plasma, single IV dose 50 mg/m^2, mean ± SD; read-out: t½ (converted)
endpoint_name: half-life (min)
Write down the numeric answer in min and omit the unit.

Q. Entry C=CCNC1=C2C[C@@H](C)C[C@H](OC)[C@H](O)[C@@H](C)/C=C(\C)[C@H](OC(N)=O)[C@@H](OC)/C=C\C=C(/C)C(=O)NC(=CC1=O)C2=O has what half-life?
A. 32.4

* * *

- method_description: Study A dose-escalation protocol: 17-AAG pharmacokinetics in plasma (HPLC)
- Assay type: in vivo
- experimental_conditions: female, dog, 50 mg/m2; Study A, dogs, plasma, single IV dose 50 mg/m^2, mean ± SD; read-out: Cmax
- Experimental: In Studies A and B, an intravenous catheter was placed in the cephalic vein of each animal’s right and left anterior limbs. […] Under both protocols, blood samples were centrifuged at 1500× g at 4 °C for 10 min. For the mobile phase, acetonitrile (ACN, J.T.Baker®, Philadelphia, PA, USA) and water with 1% acetic acid (J.T.Baker®)were used. […] Cmax, half-life (t ½), distribution volume, and clearance were also determined. Data were analyzed in Excel and WinNonlin using a mono-compartmental model.
endpoint_name: Cmax

Q. Name the reported Cmax value associated with the molecule C=CCNC1=C2C[C@@H](C)C[C@H](OC)[C@H](O)[C@@H](C)/C=C(\C)[C@H](OC(N)=O)[C@@H](OC)/C=C\C=C(/C)C(=O)NC(=CC1=O)C2=O
A. 1410 ng/mL

* * *

- method_description: Study B: 17-AAG pharmacokinetics in subcutaneous interstitial fluid (tissue cages, HPLC)
- Assay type: in vivo
- experimental_conditions: both sexes, dog, subcutaneous interstitial fluid, iv, 150 mg/m2, Study B, dogs, 1st administration of 150 mg/m^2 IV, mean ± SD
endpoint_name: Cmax (ng/mL)
Entry rule: numbers only, all in ng/mL.

Q. Item under review: C=CCNC1=C2C[C@@H](C)C[C@H](OC)[C@H](O)[C@@H](C)/C=C(\C)[C@H](OC(N)=O)[C@@H](OC)/C=C\C=C(/C)C(=O)NC(=CC1=O)C2=O . Reported Cmax?
A. 704

* * *

- method_description: Study B: 17-AAG pharmacokinetics in subcutaneous interstitial fluid (tissue cages, HPLC)
- Type: in vivo
- experimental_conditions: both sexes, dog, subcutaneous interstitial fluid, iv, 150 mg/m2, Study B, dogs, subcutaneous interstitial fluid, 1st administration of 150 mg/m^2 IV, mean ± SD; read-out: AUC 0–24 h
endpoint_name: AUC(0-t) (ng·h/mL)
Number only, in ng·h/mL; omit the unit.

Q. Would you mind telling me what AUC(0-t) value was observed for C=CCNC1=C2C[C@@H](C)C[C@H](OC)[C@H](O)[C@@H](C)/C=C(\C)[C@H](OC(N)=O)[C@@H](OC)/C=C\C=C(/C)C(=O)NC(=CC1=O)C2=O ?
A. 4760

* * *

- method_description: Study B: 17-AAG pharmacokinetics in subcutaneous interstitial fluid (tissue cages, HPLC)
- Format: in vivo
- experimental_conditions: both sexes, dog, subcutaneous interstitial fluid, iv, 150 mg/m2, Study B, dogs, subcutaneous interstitial fluid, 2nd administration of 150 mg/m^2 IV, mean ± SD; read-out: AUC 0–47.5 h
endpoint_name: AUC(0-t) (ng·h/mL)
Numeric only. Scale: ng·h/mL

Q. What value of AUC(0-t) has been recorded for this entry: C=CCNC1=C2C[C@@H](C)C[C@H](OC)[C@H](O)[C@@H](C)/C=C(\C)[C@H](OC(N)=O)[C@@H](OC)/C=C\C=C(/C)C(=O)NC(=CC1=O)C2=O [17-AAG, 17-(allylamino)-17-demethoxygeldanamycin]
A. 7050

* * *

- method_description: Study A dose-escalation protocol: 17-AAG pharmacokinetics in plasma (HPLC)
- Type: in vivo
- experimental_conditions: female, dog, 250 mg/m2; Study A, dogs, plasma, single IV dose 250 mg/m^2, mean ± SD; read-out: t½ (converted)
endpoint_name: half-life (min)
Expressed in min, but write only the number.

Q. # half-life lookup, item C=CCNC1=C2C[C@@H](C)C[C@H](OC)[C@H](O)[C@@H](C)/C=C(\C)[C@H](OC(N)=O)[C@@H](OC)/C=C\C=C(/C)C(=O)NC(=CC1=O)C2=O
A. 34.2

* * *

- method_description: Study A dose-escalation protocol: 17-AAG pharmacokinetics in plasma (HPLC)
- Assay type: in vivo
- experimental_conditions: female, dog, 150 mg/m2; Study A, dogs, plasma, AUC0–8h, single IV dose 150 mg/m^2, mean ± SD
endpoint_name: AUC (ng·h/mL)
Give your result in ng·h/mL as a bare value.

Q. I would be grateful if you could share the reported AUC for C=CCNC1=C2C[C@@H](C)C[C@H](OC)[C@H](O)[C@@H](C)/C=C(\C)[C@H](OC(N)=O)[C@@H](OC)/C=C\C=C(/C)C(=O)NC(=CC1=O)C2=O [17-AAG, 17-(allylamino)-17-demethoxygeldanamycin] .
A. 7930

* * *

- method_description: Study A dose-escalation protocol: 17-AAG pharmacokinetics in plasma (HPLC)
- Type: in vivo
- experimental_conditions: female, dog, 100 mg/m2; Study A, dogs, plasma, AUC0–8h, single IV dose 100 mg/m^2, mean ± SD
endpoint_name: AUC (ng·h/mL)
Numbers only here, please. The scale is ng·h/mL.

Q. Which AUC is reported for this compound? C=CCNC1=C2C[C@@H](C)C[C@H](OC)[C@H](O)[C@@H](C)/C=C(\C)[C@H](OC(N)=O)[C@@H](OC)/C=C\C=C(/C)C(=O)NC(=CC1=O)C2=O
A. 4380

* * *

- method_description: Study B multiple administrations of 150 mg/m^2: 17-AAG pharmacokinetics in plasma (HPLC)
- Type: in vivo, dogs
- experimental_conditions: both sexes, dog, plasma, iv, 150 mg/m2, Study B, dogs, 2nd of three IV administrations of 150 mg/m^2 at 48 h intervals, mean ± SD
endpoint_name: Cmax
Quick note: unit goes after the number.

Q. For C=CCNC1=C2C[C@@H](C)C[C@H](OC)[C@H](O)[C@@H](C)/C=C(\C)[C@H](OC(N)=O)[C@@H](OC)/C=C\C=C(/C)C(=O)NC(=CC1=O)C2=O [17-AAG, 17-(allylamino)-17-demethoxygeldanamycin] , what is its reported Cmax?
A. 5910 ng/mL

* * *

- method_description: Study B multiple administrations of 150 mg/m^2: 17-AAG pharmacokinetics in plasma (HPLC)
- Type: in vivo, dogs
- experimental_conditions: both sexes, dog, plasma, iv, 150 mg/m2, Study B, dogs, 3rd of three IV administrations of 150 mg/m^2 at 48 h intervals, mean ± SD
endpoint_name: Cmax (ng/mL)
The answer is to be given in ng/mL; state only the numeric part.

Q. Entry under review: C=CCNC1=C2C[C@@H](C)C[C@H](OC)[C@H](O)[C@@H](C)/C=C(\C)[C@H](OC(N)=O)[C@@H](OC)/C=C\C=C(/C)C(=O)NC(=CC1=O)C2=O [17-AAG, 17-(allylamino)-17-demethoxygeldanamycin] . Reported Cmax?
A. 5250

* * *

- method_description: Study B: 17-AAG pharmacokinetics in subcutaneous interstitial fluid (tissue cages, HPLC)
- Format: in vivo
- experimental_conditions: both sexes, dog, subcutaneous interstitial fluid, iv, 150 mg/m2, Study B, dogs, subcutaneous interstitial fluid, 3rd administration of 150 mg/m^2 IV, mean ± SD; read-out: AUC 0–6 h
endpoint_name: AUC(0-t) (ng·h/mL)
# output: bare number, implied unit ng·h/mL

Q. Field request: AUC(0-t) | item: C=CCNC1=C2C[C@@H](C)C[C@H](OC)[C@H](O)[C@@H](C)/C=C(\C)[C@H](OC(N)=O)[C@@H](OC)/C=C\C=C(/C)C(=O)NC(=CC1=O)C2=O
A. 2040

* * *

- method_description: Study A dose-escalation protocol: 17-AAG pharmacokinetics in plasma (HPLC)
- Format: in vivo
- experimental_conditions: female, dog, plasma; abstract; dogs, after single IV doses 50–250 mg/m^2; read-out: maximum plasma concentration (Cmax), upper end of range
endpoint_name: Cmax (µg/mL)
Unit µg/mL implied. Number only.

Q. Give its Cmax value. Item: C=CCNC1=C2C[C@@H](C)C[C@H](OC)[C@H](O)[C@@H](C)/C=C(\C)[C@H](OC(N)=O)[C@@H](OC)/C=C\C=C(/C)C(=O)NC(=CC1=O)C2=O
A. 9.44
